For each of the variants below, state its protein stability index.
B1: PLK2 (parent)
chain: YAELGQCSVFPATDAPEQFISQVT

- Variants of: B1
- Protocol summary: protein stability index of a GFP-peptide fusion (GPS, HEK-293T) (PSI 1-6); higher = more stable;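 also: lentivirally expressed fusions sorted by FACS into six bins by GFP to DsRed ratio, PSI derived from sequencing read proportions per bin multiplied by bin number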
- Setup conditions: c terminus: a fixed tail appended
Enter a number only.

I would be grateful if you could share the reported protein stability index for `YAELGQCSVFPATDDPEQFISQVT` .
2.27

I would be grateful if you could share the reported protein stability index for `YIELGQCSVFPATDAPEQFISQVT` .
1.64

I would be grateful if you could share the reported protein stability index for `YAELGQCSVFPATDYPEQFISQVT` .
2.13

I would be grateful if you could share the reported protein stability index for `YAELHQCSVFPATDAPEQFISQVT` .
2.52

I would be grateful if you could share the reported protein stability index for `YAELGQCSVFEATDAPEQFISQVT` .
1.33

I would be grateful if you could share the reported protein stability index for `YAELGQCSHFPATDAPEQFISQVT` .
2.69

I would be grateful if you could share the reported protein stability index for `YNELGQCSVFPATDAPEQFISQVT` .
3.75

I would be grateful if you could share the reported protein stability index for `YAELGQCSKFPATDAPEQFISQVT` .
2.88

I would be grateful if you could share the reported protein stability index for `YRELGQCSVFPATDAPEQFISQVT` .
3.6

I would be grateful if you could share the reported protein stability index for `YAELGQCSVFPATDAPNQFISQVT` .
1.95

I would be grateful if you could share the reported protein stability index for `YAELGQCSVFPATDAPEQFISMVT` .
1.73

I would be grateful if you could share the reported protein stability index for `YAELGQCSVFPATDAPEQFIMQVT` .
3.09

I would be grateful if you could share the reported protein stability index for `YAELGQCSVFPATDAPERFISQVT` .
1.88

I would be grateful if you could share the reported protein stability index for `YAELGQCSVFPATDAPEQFISWVT` .
2.09

I would be grateful if you could share the reported protein stability index for `YAELGYCSVFPATDAPEQFISQVT` .
1.95

I would be grateful if you could share the reported protein stability index for `YATLGQCSVFPATDAPEQFISQVT` .
1.98

I would be grateful if you could share the reported protein stability index for `YAELAQCSVFPATDAPEQFISQVT` .
2.14

I would be grateful if you could share the reported protein stability index for `YAELGQCSVFPATDADEQFISQVT` .
2.53

I would be grateful if you could share the reported protein stability index for `YAELWQCSVFPATDAPEQFISQVT` .
3.46

I would be grateful if you could share the reported protein stability index for `TAELGQCSVFPATDAPEQFISQVT` .
3.99

I would be grateful if you could share the reported protein stability index for `KAELGQCSVFPATDAPEQFISQVT` .
4.16

I would be grateful if you could share the reported protein stability index for `YAELGQCSMFPATDAPEQFISQVT` .
1.98

I would be grateful if you could share the reported protein stability index for `YAEVGQCSVFPATDAPEQFISQVT` .
2.9

I would be grateful if you could share the reported protein stability index for `YAELGQCSVFPATDAPEQFISDVT` .
2.75

I would be grateful if you could share the reported protein stability index for `YAELGQCSVFPAIDAPEQFISQVT` .
1.81

I would be grateful if you could share the reported protein stability index for `YAELGQCSVFPATDNPEQFISQVT` .
2.33

I would be grateful if you could share the reported protein stability index for `YAELGQCSVFPATDAPEAFISQVT` .
1.87

I would be grateful if you could share the reported protein stability index for `YAEPGQCSVFPATDAPEQFISQVT` .
3.04

I would be grateful if you could share the reported protein stability index for `YAYLGQCSVFPATDAPEQFISQVT` .
1.85

I would be grateful if you could share the reported protein stability index for `YASLGQCSVFPATDAPEQFISQVT` .
1.82

I would be grateful if you could share the reported protein stability index for `YWELGQCSVFPATDAPEQFISQVT` .
2.5

I would be grateful if you could share the reported protein stability index for `YAELGQCSVFPITDAPEQFISQVT` .
2.07

I would be grateful if you could share the reported protein stability index for `YAELGQCSVFPATDAPEQFIEQVT` .
2.75

I would be grateful if you could share the reported protein stability index for `YAELGQCSVFPATDANEQFISQVT` .
2.35

I would be grateful if you could share the reported protein stability index for `YACLGQCSVFPATDAPEQFISQVT` .
2.21

I would be grateful if you could share the reported protein stability index for `YAELGQCSVFPATDAPEQFIGQVT` .
2.26

I would be grateful if you could share the reported protein stability index for `YAELGQCRVFPATDAPEQFISQVT` .
1.9

I would be grateful if you could share the reported protein stability index for `YAELGQCSVFPATCAPEQFISQVT` .
1.86

I would be grateful if you could share the reported protein stability index for `CAELGQCSVFPATDAPEQFISQVT` .
3.13

I would be grateful if you could share the reported protein stability index for `YAHLGQCSVFPATDAPEQFISQVT` .
1.93

I would be grateful if you could share the reported protein stability index for `YAELGQCSVFPAYDAPEQFISQVT` .
1.62

I would be grateful if you could share the reported protein stability index for `YAELGQCSVFPATDAYEQFISQVT` .
1.79

I would be grateful if you could share the reported protein stability index for `YAELGTCSVFPATDAPEQFISQVT` .
2.42

I would be grateful if you could share the reported protein stability index for `LAELGQCSVFPATDAPEQFISQVT` .
3.54

I would be grateful if you could share the reported protein stability index for `YAELGQCSVFPAPDAPEQFISQVT` .
2.17

I would be grateful if you could share the reported protein stability index for `YAELGQCSVFLATDAPEQFISQVT` .
2.03
